System name: recombinant human SIRPα-His V2 (human, UniProt P78324 31-370)
Sequence (P78324 other isoform, or with tags, fused parts or gaps): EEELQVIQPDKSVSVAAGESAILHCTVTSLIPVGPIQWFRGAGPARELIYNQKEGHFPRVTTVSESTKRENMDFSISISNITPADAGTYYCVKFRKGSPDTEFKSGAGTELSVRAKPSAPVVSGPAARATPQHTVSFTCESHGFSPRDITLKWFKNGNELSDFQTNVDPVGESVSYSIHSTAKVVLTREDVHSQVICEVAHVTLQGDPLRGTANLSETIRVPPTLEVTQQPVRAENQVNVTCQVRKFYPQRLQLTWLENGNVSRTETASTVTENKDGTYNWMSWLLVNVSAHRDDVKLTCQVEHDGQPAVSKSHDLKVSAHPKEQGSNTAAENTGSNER
Test method notes: Biacore
Property measured: Kd
Field: value (include unit after the number)

Problem: # return recorded Kd for input 54.8A5.A5 (antibody, V domains shown) VH: EVQLVESGGDLIQPGGSLRLSCAASGFSFSSYDMHWVRQTTGKGLEWVSAIGTAGDTYYPGSVKGRFTISRENAKNSLYLQMNSLRAGDTAVYYCARGGNWDDAFDIWGQGTVVTVSS VL: DIQMTQSPSSLSASVGDRVTITCRASQDINNYLAWFQQKPGRAPKSLIFTASRLQSGVPSKFSGSGSGTDFSLTISSLQPEDFATYYCQQYTFYPYTFGQGTKLEIK
Result: 1.13 nM
